src = patent US10034886B2

Target: GLP-1R (Homo sapiens)
Construct: host or cells: GLP-1R CRE-bla CHO-K1 cells
Sequence (P43220 24-463): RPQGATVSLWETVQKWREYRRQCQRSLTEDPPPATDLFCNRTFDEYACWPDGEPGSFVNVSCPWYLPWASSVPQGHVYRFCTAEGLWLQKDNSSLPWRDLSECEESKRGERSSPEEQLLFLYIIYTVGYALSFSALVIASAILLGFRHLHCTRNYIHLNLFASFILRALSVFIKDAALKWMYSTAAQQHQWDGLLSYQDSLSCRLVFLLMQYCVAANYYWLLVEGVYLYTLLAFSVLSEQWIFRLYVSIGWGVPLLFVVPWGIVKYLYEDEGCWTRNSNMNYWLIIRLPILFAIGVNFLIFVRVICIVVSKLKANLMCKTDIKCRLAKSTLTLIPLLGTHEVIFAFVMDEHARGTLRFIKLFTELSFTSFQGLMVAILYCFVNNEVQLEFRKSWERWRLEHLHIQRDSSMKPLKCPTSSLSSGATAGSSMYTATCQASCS
Sequence (P01275 100-127 partner limits assumed): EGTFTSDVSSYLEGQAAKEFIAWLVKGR
Test: EC20 GLP-1(9-36) PAM cAMP assay: dose response of compound in the presence of fixed concentration of GLP-1(9-36)
Format: cell-based
Settings: dose response of compound in presence of fixed concentration of GLP-1(9-36), GLP-1R CRE-bla CHO-K1 cells, read-out: EC20 GLP-1(9-36) PAM EC50
pEC50: −log10 of the molar value.
experimental.endpoint: pEC50

# pEC50 lookup, item CCCc1ccc(-c2ccc(-c3cnc(-c4ccc(C[C@H](NC(=O)c5ccc(C(C)(C)C)s5)C(=O)N[C@H](C)C(=O)O)cc4)nc3)cc2)cc1 [Compound 1136]
5.60 to 6.10

Then this compound: CCCCCCOc1ccc(-c2cnc(-c3ccc(C[C@H](NC(=O)c4ccc(C(C)(C)C)cc4)C(=O)NCCC(=O)O)cc3)nc2)cc1 [Compound 490]
5.60 to 6.10

Then this compound: CC(C)(C)c1ccc(C(=O)N[C@@H](Cc2ccc(-c3ncc(-c4ccc(OCC5CC5)cc4)cn3)cc2)C(=O)NCCC(=O)O)cc1 [Compound 684]
5.00 to 5.30

Then this compound: CCCCCCCOc1ccc(-c2cnc(-c3ccc(C[C@H](NC(=O)c4ccc(CCC)s4)C(=O)N4CCC[C@H]4C(=O)O)cc3)nc2)cc1 [Compound 1069]
5.60 to 6.10

Then this compound: CCCCCCCOc1ccc(-c2cnc(-c3ccc(C[C@H](NC(=O)c4ccc(CCC)s4)C(=O)N4CC(C(=O)O)C4)cc3)nc2)cc1 [Compound 1107]
5.60 to 6.10

Then this compound: CCCCCCCOc1ccc(-c2cnc(-c3ccc(C[C@H](NC(=O)c4ccc(C(C)(C)C)s4)C(=O)N[C@@H](CC(=O)O)C(N)=O)cc3)nc2)cc1 [Compound 525]
> 6.10

Then this compound: CCc1ccc(/C=C/c2cnc(-c3ccc(C[C@H](NC(=O)c4ccc(C(C)(C)C)s4)C(=O)N4CC(C(=O)O)C4)cc3)nc2)cc1 [Compound 1092]
5.60 to 6.10

Then this compound: CC(C)(C)c1ccc(-c2cnc(-c3ccc(C[C@H](NC(=O)c4ccc(C(C)(C)C)s4)C(=O)N4CC(C(=O)O)C4)cc3)nc2)cc1 [Compound 783]
5.60 to 6.10

Then this compound: CCCCCCCOc1ccc(-c2cnc(-c3ccc(CC(NC(=O)c4ccc(C(C)(C)C)s4)C(=O)N[C@H](C(=O)O)[C@@H](C)O)cc3)nc2)cc1 (some centres unmarked) [Compound 424]
> 6.10

Then this compound: CCCCCCCOc1ccc(-c2cnc(-c3ccc(C[C@H](NC(=O)c4ccc(OCCC)cc4)C(=O)N4CCC[C@H]4C(=O)O)cc3)nc2)cc1 [Compound 1071]
5.30 to 5.60

Then this compound: CCCCCCCOc1ccc(-c2cnc(-c3ccc(C[C@H](NC(=O)c4ccc(C(C)(C)C)s4)C(=O)N4CC[C@H](C(=O)Nc5nnn[nH]5)C4)cc3)nc2)cc1 [Compound 885]
5.00 to 5.30

Then this compound: CC(C)(C)c1ccc(C(=O)N[C@@H](Cc2ccc(-c3ncc(-c4ccc(OCCC5CCCCC5)cc4)cn3)cc2)C(=O)N2CC[C@H](C(=O)O)C2)s1 [Compound 774]
5.60 to 6.10

Then this compound: CCCCCCCOc1ccc(-c2cnc(-c3ccc(C[C@H](NC(=O)c4ccc(C(C)(C)C)nc4)C(=O)N4CCC[C@H]4C(=O)O)cc3)nc2)cc1 [Compound 1077]
5.60 to 6.10

Then this compound: CCCCCCCOc1ccc(-c2cnc(-c3ccc(C[C@H](NC(=O)c4ccc(C(C)(C)C)cc4)C(=O)N[C@H](CN)C(=O)O)cc3)nc2)cc1 [Compound 465]
5.60 to 6.10

Then this compound: CCCCCCCOc1ccc(-c2cnc(-c3ccc(C[C@H](NC(=O)c4ccc(CCCC)cc4)C(=O)N[C@H](C)C(=O)O)cc3)nc2)cc1 [Compound 821]
5.60 to 6.10

Then this compound: CCCCCCCOc1ccc(-c2cnc(-c3ccc(C[C@H](NC(=O)c4ccc(C(C)(C)C)s4)C(=O)N[C@@H](CC(=O)NC)C(=O)O)cc3)nc2)cc1 [Compound 512]
> 6.10

Then this compound: CCCCCOc1ccc(-c2cnc(-c3ccc(C[C@H](NC(=O)c4ccc(C(C)(C)C)cc4)C(=O)N[C@H](C)C(=O)O)cc3)nc2)cc1 [Compound 718]
5.30 to 5.60

Then this compound: CCCCCCCOc1ccc(-c2cnc(-c3ccc(C[C@H](NC(=O)c4ccc(C(C)(C)C)s4)C(=O)N4CC(F)(C(=O)O)C4)cc3)nc2)cc1 [Compound 878]
> 6.10

Then this compound: CCCCCCCOc1ccc(-c2cnc(-c3ccc(C[C@H](NC(=O)c4ccc(CCCC)cc4)C(=O)N4CC(C(=O)O)C4)cc3)nc2)cc1 [Compound 1115]
5.60 to 6.10

Then this compound: CCCCCCCOc1ccc(-c2cnc(-c3ccc(C[C@H](NC(=O)c4ccc(C(C)(C)C)s4)C(=O)NC(Cc4c[nH]c5ncccc45)C(=O)O)cc3)nc2)cc1 (some centres unmarked) [Compound 626]
> 6.10

Then this compound: CC(C)(C)c1ccc(C(=O)N[C@@H](Cc2ccc(-c3ncc(-c4ccc(C5CCCC5)cc4)cn3)cc2)C(=O)N2CCC[C@H]2C(=O)O)s1 [Compound 1123]
5.60 to 6.10

Then this compound: CCCCCCCOc1ccc(-c2cnc(-c3ccc(C[C@H](NC(=O)c4ccc(C(C)(C)C)cc4OCC)C(=O)N4CC(C(=O)O)C4)cc3)nc2)cc1 [Compound 1100]
5.30 to 5.60

Then this compound: CCCCCCCOc1ccc(-c2cnc(-c3ccc(C[C@H](NC(=O)c4ccc(C(C)(C)C)s4)C(=O)N4CC(CC(=O)O)C4)cc3)nc2)cc1 [Compound 607]
5.60 to 6.10
